Recorded zone of inhibition at 1000 µg/disc by entry
# Tested on: Aspergillus niger
# measurementProtocol: Antifungal activity against Aspergillus niger at 1000 ug after 24 hrs by paper disc technique
# Assay type: functional
# conditionDetails: Aspergillus niger, 24 h; read-out: DIZ
# unit: mm | format: bare number

Here's what some known entries look like.
compound	testResult
O=[N+]([O-])c1ccc(-c2nn(-c3ccccc3)c3c2C=Nc2nnc(-c4ccccc4)n2N3)cc1	20
Cc1n[nH]c2c1C=Nc1nnc(-c3ccccc3)n1N2	32

Give zone of inhibition at 1000 µg/disc (Aspergillus niger) of the following compound: Brc1ccc(-c2nn(-c3ccccc3)c3c2C=Nc2nnc(Cc4ccccc4)n2N3)cc1
14

Would you mind doing C1=Nc2nnc(-c3ccccc3)n2Nc2c1c(-c1ccccc1)nn2-c1ccccc1 as well?
31

// next record Cc1n[nH]c2c1C=Nc1nnc(-c3ccc(Cl)cc3)n1N2
32

For OC(Cn1cncn1)(Cn1cncn1)c1ccc(F)cc1F [FLUCONAZOLE] then?
48

Then what about the compound Clc1ccc(-c2nnc3n2Nc2c(c(-c4ccc(Br)cc4)nn2-c2ccccc2)C=N3)cc1 ?
21

Now try Brc1ccc(-c2nn(-c3ccccc3)c3c2C=Nc2nnc(-c4ccccc4)n2N3)cc1 .
12

Note, next up: O=[N+]([O-])c1ccc(-c2nn(-c3ccccc3)c3c2C=Nc2nnc(-c4ccc([N+](=O)[O-])cc4)n2N3)cc1
15

Note, next up: O=[N+]([O-])c1ccc(-c2nnc3n2Nc2c(c(-c4ccc(Br)cc4)nn2-c2ccccc2)C=N3)cc1
2

Please answer likewise for O=[N+]([O-])c1ccc(-c2nn(-c3ccccc3)c3c2C=Nc2nnc(Cc4ccccc4)n2N3)cc1
14

* * *

# System: Aspergillus flavus
# measurementProtocol: Antifungal activity against Aspergillus flavus at 500 ug after 24 hrs by paper disc technique
# Assay type: functional
# conditionDetails: Aspergillus flavus, 24 h; read-out: DIZ
testReadout: zone of inhibition at 500 µg/disc (mm)
Just the number in mm, nothing appended.

Here is how some compounds turned out for zone of inhibition at 500 µg/disc.
C1=Nc2nnc(-c3ccccc3)n2Nc2c1c(-c1ccccc1)nn2-c1ccccc1 21
Cc1n[nH]c2c1C=Nc1nnc(-c3ccc(Cl)cc3)n1N2 22
Clc1ccc(-c2nnc3n2Nc2c(c(-c4ccc(Br)cc4)nn2-c2ccccc2)C=N3)cc1 22
Cc1n[nH]c2c1C=Nc1nnc(-c3ccccc3)n1N2 20
O=[N+]([O-])c1ccc(-c2nn(-c3ccccc3)c3c2C=Nc2nnc(Cc4ccccc4)n2N3)cc1 20

Turning to the following compound.
What does the data say about its zone of inhibition at 500 µg/disc? Entry: OC(Cn1cncn1)(Cn1cncn1)c1ccc(F)cc1F
35

* * *

# Test system: Aspergillus flavus
# measurementProtocol: Antifungal activity against Aspergillus flavus at 500 ug after 24 hrs by paper disc technique
# Assay type: functional
# conditionDetails: Aspergillus flavus, 24 h; read-out: DIZ
Measured zone of inhibition at 500 µg/disc, listed per entry for reference.
Write the answer as a number in mm, unit excluded.

O=[N+]([O-])c1ccc(-c2nnc3n2Nc2c(c(-c4ccc(Br)cc4)nn2-c2ccccc2)C=N3)cc1 18
Brc1ccc(-c2nn(-c3ccccc3)c3c2C=Nc2nnc(-c4ccccc4)n2N3)cc1 18
O=[N+]([O-])c1ccc(-c2nn(-c3ccccc3)c3c2C=Nc2nnc(-c4ccc([N+](=O)[O-])cc4)n2N3)cc1 3
Brc1ccc(-c2nn(-c3ccccc3)c3c2C=Nc2nnc(Cc4ccccc4)n2N3)cc1 20

Entry O=[N+]([O-])c1ccc(-c2nn(-c3ccccc3)c3c2C=Nc2nnc(-c4ccccc4)n2N3)cc1 : reported zone of inhibition at 500 µg/disc = ?
24
